Listed here: items and their measured collision cross section (N2).
# Measurement parameters: [M+H]+; instrument: TW
# number only, unit Å² dropped from output

INSERT INTO results (compound, endpoint_name, readout_value) VALUES
  ('CN(C)C(=O)Nc1ccc(Oc2ccc(Cl)cc2)cc1', 'collision cross section (N2)', 172.24),
  ('N#CC(CCc1ccc(Cl)cc1)(Cn1cncn1)c1ccccc1 (configuration not stated)', 'collision cross section (N2)', 182.44),
  ('O=[N+]([O-])c1cnc(CO)n1CCO [Hydroxymetronidazole]', 'collision cross section (N2)', 128.2),
  ('COc1ccc(/C(=C/C(=O)N2CCOCC2)c2ccc(Cl)cc2)cc1OC', 'collision cross section (N2)', 199.03),
  ('CCCSP(=O)(OCC)SCCC', 'collision cross section (N2)', 149.27);

IN: Identify measured collision cross section (N2) corresponding to CN(C)[C@@H]1C(O)=C(C(=N)O)C(=O)[C@@]2(O)C(O)=C3C(=O)c4c(O)ccc(Cl)c4[C@@](C)(O)[C@H]3C[C@@H]12
OUT: 203.9

IN: Identify measured collision cross section (N2) corresponding to Cc1ccnc(NS(=O)(=O)c2ccc(N)cc2)n1
OUT: 154.8

IN: Identify measured collision cross section (N2) corresponding to Cc1nn(C)c(Oc2ccccc2)c1/C=N/OCc1ccc(C(=O)OC(C)(C)C)cc1 [Fenpyroximate]
OUT: 215.89

IN: Identify measured collision cross section (N2) corresponding to Cc1ccc(-c2c(Cl)nc(C#N)n2S(=O)(=O)N(C)C)cc1
OUT: 166.69

----------
Listed here: items and their measured collision cross section (N2).
# Measurement parameters: [M+H]+; instrument: TW
# number only, unit Å² dropped from output

Look over these answered cases.
INSERT INTO measurements (compound, endpoint_name, unit_name, readout_value) VALUES
  ('CC1(C)OC(=O)C(OCC2CC2)=C1c1ccc(S(C)(=O)=O)cc1', 'collision cross section (N2)', 'Å²', 182.1),
  ('CN(C)CCCN1c2ccccc2Sc2ccc(Cl)cc21', 'collision cross section (N2)', 'Å²', 169.1),
  ('C/C(=N\C#N)N(C)Cc1ccc(Cl)nc1', 'collision cross section (N2)', 'Å²', 150.24);

IN: Identify measured collision cross section (N2) corresponding to COC(=O)N(OC)c1ccccc1COc1ccn(-c2ccc(Cl)cc2)n1
OUT: 183.19

----------
# Measurement parameters: [M+Na]+; instrument: TW; calibrated with phosphatidylcholines (ESI+) and phosphatidylethanolamines (ESI-), doubly charged cardiolipins calibrated with poly-DL-…
Listed here: items and their measured collision cross section (N2).
# number only, unit Å² dropped from output

Look over these answered cases.
INSERT INTO assay_data (compound, readout_value) VALUES
  ('CCCCCCCC/C=C\CCCCCCCC(=O)OC(COC(=O)CCCCCCCCCCCCCCC)COP(=O)(O)OCC(O)CO (stereo not drawn)', 281.03),
  ('CCCCCC/C=C\CCCCCCCC(=O)OC[C@H](COP(=O)(O)OC[C@@H](O)COC(=O)CCCCCCCCCCCCCCC)OC(=O)CCCCCCC/C=C\CCCCCCCC', 333.1);

For the next question, use this compound.
IN: Identify measured collision cross section (N2) corresponding to CCCCCC/C=C\CCCCCCCC(=O)OCC(COP(=O)(O)OCC(O)CO)OC(=O)CCCCCCC/C=C\CCCCCC (stereo not drawn)
OUT: 272.38
